Where these numbers come from: patent US5112739A

Molecular target: β-galactosidase from e. coli (Escherichia coli, UniProt P00722)
Sequence (P00722 whole entry): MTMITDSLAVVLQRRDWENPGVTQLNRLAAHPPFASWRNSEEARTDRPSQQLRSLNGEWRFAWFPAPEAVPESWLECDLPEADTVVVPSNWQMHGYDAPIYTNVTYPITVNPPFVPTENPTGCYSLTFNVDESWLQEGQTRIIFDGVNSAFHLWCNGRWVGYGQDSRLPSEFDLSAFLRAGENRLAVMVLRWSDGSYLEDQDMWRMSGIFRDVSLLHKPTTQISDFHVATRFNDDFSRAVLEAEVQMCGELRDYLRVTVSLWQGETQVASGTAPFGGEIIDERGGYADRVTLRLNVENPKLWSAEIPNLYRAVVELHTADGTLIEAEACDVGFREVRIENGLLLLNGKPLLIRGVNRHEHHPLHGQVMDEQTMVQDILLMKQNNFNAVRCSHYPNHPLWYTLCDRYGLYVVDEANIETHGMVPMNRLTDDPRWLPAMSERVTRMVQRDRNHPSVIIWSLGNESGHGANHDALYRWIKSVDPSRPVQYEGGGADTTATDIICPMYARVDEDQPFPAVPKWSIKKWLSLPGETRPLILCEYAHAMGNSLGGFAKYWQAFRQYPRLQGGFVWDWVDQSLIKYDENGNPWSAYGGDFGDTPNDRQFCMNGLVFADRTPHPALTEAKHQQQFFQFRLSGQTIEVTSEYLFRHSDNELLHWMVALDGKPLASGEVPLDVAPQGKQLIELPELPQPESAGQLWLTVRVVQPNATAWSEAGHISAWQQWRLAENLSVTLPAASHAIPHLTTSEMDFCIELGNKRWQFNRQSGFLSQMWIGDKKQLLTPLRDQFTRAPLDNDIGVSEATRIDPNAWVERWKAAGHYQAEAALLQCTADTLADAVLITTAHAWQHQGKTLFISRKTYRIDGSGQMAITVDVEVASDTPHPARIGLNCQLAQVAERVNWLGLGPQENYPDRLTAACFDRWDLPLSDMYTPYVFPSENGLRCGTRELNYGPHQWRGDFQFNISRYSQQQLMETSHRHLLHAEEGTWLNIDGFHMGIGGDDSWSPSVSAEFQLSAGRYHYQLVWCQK
Assay: relative release rate of the leaving group on cleavage by β-galactosidase, spectrophotometric
Assay type: biochemical
Conditions: 5 × 10^-5 M compound, pH7 tris buffer, 0.01 M NaCl, 0.01 M MgCl2, 25° C., 1.5 IU β-galactosidase; ONPG = 1.0
Below: a set of entries, each annotated with reported APPROXIMATE RELATIVE RATE (release of leaving group, compared with ONPG).
// no unit, no text: just the number

Below, 3 compounds whose answers are already recorded.
Compound	Data value
O=c1ccc2nc3ccc(OCc4ccc(O[C@@H]5O[C@H](CO)[C@H](O)[C@H](O)[C@H]5O)c([N+](=O)[O-])c4)cc3oc-2c1 [A]	0.25
O=C(c1cc(O[C@@H]2O[C@H](CO)[C@H](O)[C@H](O)[C@H]2O)c([N+](=O)[O-])cc1COc1ccc2nc3ccc(=O)cc-3oc2c1)N1CCOCC1 [D]	0.02
Cc1cc(=O)c(C(=O)N2CCOCC2)c2oc3c(C(=O)N4CCOCC4)c(OCc4ccc(O[C@@H]5O[C@H](CO)[C@H](O)[C@H](O)[C@H]5O)c([N+](=O)[O-])c4)cc(C)c3nc1-2 [B]	0.3

Any idea what APPROXIMATE RELATIVE RATE (release of leaving group, compared with ONPG) was measured for O=[N+]([O-])c1ccccc1O[C@@H]1O[C@H](CO)[C@H](O)[C@H](O)[C@H]1O [ONPG, o-nitrophenolgalactoside, reference compound] ? 1.0
